run description: Liver microsome stability, mouse
Type: in vitro ADME
study conditions: liver microsomes, pH 7.4, Table 2C, read-out: Microsome Stability Mouse t1/2
parameter: half-life at 10 μM (min)

[[record]]
molecule = "Cl.[2H]C([2H])([2H])N1CC(=O)OCCCCCCCCCCC(=O)NC1=N [Compound 15]"
qualifier_operator = "<"
measured_result = 5

[[record]]
molecule = "Cl.[2H]C([2H])([2H])N1CC(=O)OC(CC)CCCCCCCCCC(=O)NC1=N (stereo not drawn) [Compound L]"
qualifier_operator = "="
measured_result = 0.6

[[record]]
molecule = "[2H]C([2H])([2H])N1CC(=O)OCCCCCCCCCCCC(=O)NC1=N [Compound QQ]"
qualifier_operator = "="
measured_result = 4


----------
run description: Liver microsome stability, human
Format: in vitro ADME
study conditions: liver microsomes, pH 7.4, Table 2A, read-out: Microsome Stability Human t1/2
Reported half-life at 10 μM by item:
parameter: half-life at 10 μM

[[record]]
smiles_string = "Cl.[2H]C([2H])([2H])N(CC(=O)OCCCCCCC)C(=N)NC(=O)CCCCCCCCCCCC"
parameter = "half-life at 10 μM"
measured_result = "< 0.0833 h"

[[record]]
smiles_string = "Cl.[2H]C([2H])([2H])N(CC(=O)OCCCCCCC)C(=N)NC(=O)CCCCCCCCCC"
parameter = "half-life at 10 μM"
measured_result = "< 0.0833 h"

[[record]]
smiles_string = "[2H]C([2H])([2H])N(CC(=O)O)C(=N)NC(=O)c1cccnc1"
parameter = "half-life at 10 μM"
measured_result = "> 2.42 h"

[[record]]
smiles_string = "[2H]C([2H])([2H])N(CC(=O)[O-])C(=N)NC(=O)CCCC/C=C\\CCCCCCCCCCC.[Na+]"
parameter = "half-life at 10 μM"
measured_result = "> 2.42 h"


----------
run description: Chemical stability in phosphate buffered saline (PBS)
Type: physicochemical
study conditions: Table 2B, 50 μM prodrug
So basically, if Chemical Stability PBS % T0 at 2 hours at 37 °C. comes in under 60% it's 1, and if it's 60% or more it's -1.

[[record]]
molecule = "[2H]C([2H])([2H])N(CC(=O)[O-])C(=N)NC(=O)CCCCCCCCCCCO.[Na+]"
category_label = 1

[[record]]
molecule = "Cl.[2H]C([2H])([2H])N(CC(=O)OC(C)C(C)(C)C)C(=N)NC(=O)CCCCCC (centres unmarked)"
category_label = -1

[[record]]
molecule = "Cl.[2H]C([2H])([2H])N(CC(=O)OCC)C(=N)NC(=O)CCCCCCCCCC"
category_label = 1

[[record]]
molecule = "[2H]C([2H])([2H])N(CC(=O)[O-])C(=N)NC(=O)CCCCCCCCCC(C)O.[Na+] (centres unmarked)"
category_label = -1

[[record]]
molecule = "Cl.[2H]C([2H])([2H])N(CC(=O)OC(C)(C)C)C(=N)NC(=O)CCCCCCCCCC"
category_label = -1


----------
Form field: Chemical Stability PBS % T0 at 2 hours at 37 °C. (one value per entry).
run description: Chemical stability in phosphate buffered saline (PBS)
Type: physicochemical
study conditions: Table 2A, 50 μM prodrug
parameter: Chemical Stability PBS % T0 at 2 hours at 37 °C. (%)

[[record]]
compound = "[2H]C([2H])([2H])N(CC(=O)O)C(=N)NC(=O)CCCCCCC/C=C\\CCCCCC"
measured_result = 51

[[record]]
compound = "[2H]C([2H])([2H])N(CC(=O)[O-])C(=N)NC(=O)CCCCC/C=C\\CCCCCCCCCC.[Li+]"
measured_result = 150

[[record]]
compound = "[2H]C([2H])([2H])N(CC(=O)[O-])C(=N)NC(=O)CCCCCCC/C=C\\CCCCCCCC.[Na+]"
measured_result = 76

[[record]]
compound = "[2H]C([2H])([2H])N(CC(=O)[O-])C(=N)NC(=O)CCCC/C=C\\CCCCCCCCCCC.[Na+]"
measured_result = 89

[[record]]
compound = "Cl.[2H]C([2H])([2H])N(CC(=O)OC(C)C)C(=N)NC(=O)CCCCCCCCCC [Compound 12-HCl]"
measured_result = 99

[[record]]
compound = "Cl.[2H]C([2H])([2H])N(CC(=O)OCCCCCCC)C(=N)NC(=O)CCCCCCCCCCCC"
measured_result = 42

[[record]]
compound = "Cl.[2H]C([2H])([2H])N(CC(=O)OC(C)C)C(=N)NC(=O)CCCCCCCCCCCC [Compound 10-HCl]"
measured_result = 11

[[record]]
compound = "Cl.[2H]C([2H])([2H])N(CC(=O)OC(C)C)C(=N)NC(=O)CCCCCCC/C=C\\CCCCCCCC"
measured_result = 54

[[record]]
compound = "[2H]C([2H])([2H])N(CC(=O)[O-])C(=N)NC(=O)CCCCCCCCCC/C=C\\CCCCC.[Na+]"
measured_result = 67

[[record]]
compound = "[2H]C([2H])([2H])N(CC(=O)[O-])C(=N)NC(=O)CCCCCCCC.[Li+]"
measured_result = 116

[[record]]
compound = "[2H]C([2H])([2H])N(CC(=O)[O-])C(=N)NC(=O)CCCCCCCCCC.[Na+]"
measured_result = 69

[[record]]
compound = "[2H]C([2H])([2H])N(CCO)C(=N)NC(=O)CCCCCCCCCC"
measured_result = 0

[[record]]
compound = "[2H]C([2H])([2H])N(CC(=O)[O-])C(=N)NC(=O)CCCCC/C=C\\CCCCCCCCCC.[Na+]"
measured_result = 45


----------
Below: a set of entries, each annotated with reported half-life.
run description: Plasma stability, mouse plasma
Format: in vitro ADME
study conditions: Table 2A, 37 °C, read-out: Plasma Stability Mouse t1/2
parameter: half-life

[[record]]
compound = "[2H]C([2H])([2H])N(CC(=O)[O-])C(=N)NC(=O)CCCCCCC.[Na+] [Compound 38]"
measured_result = "> 3 h"

[[record]]
compound = "[2H]C([2H])([2H])N(CC(=O)[O-])C(=N)NC(=O)c1cccnc1.[Na+] [Compound 20]"
measured_result = "> 3 h"

[[record]]
compound = "[2H]C([2H])([2H])N(CC(=O)[O-])C(=N)NC(=O)CCCCC/C=C\\CCCCCCCCCC.[Na+] [Compound 26]"
measured_result = "> 3 h"

[[record]]
compound = "[2H]C([2H])([2H])N(CC(=O)[O-])C(=N)NC(=O)CCCCCCC/C=C\\CCCCCCCC.[Na+] [Compound 1]"
measured_result = "> 3 h"

[[record]]
compound = "Cl.[2H]C([2H])([2H])N(CC(=O)OCCCCCCC)C(=N)NC(=O)CCCCCCCCCC [Compound 5]"
measured_result = "< 0.0833 h"

[[record]]
compound = "[2H]C([2H])([2H])N(CC(=O)[O-])C(=N)NC(=O)CCCCCCC.[Li+] [Compound 37]"
measured_result = "> 3 h"

[[record]]
compound = "[2H]C([2H])([2H])N(CC(=O)[O-])C(=N)NC(=O)CCCCCCCCCCCC.[Na+] [Compound 29]"
measured_result = "> 3 h"

[[record]]
compound = "Cl.[2H]C([2H])([2H])N(CC(=O)OCCCCCCC)C(=N)NC(=O)CCCCCCCCCCCC [Compound 11]"
measured_result = "< 0.0833 h"

[[record]]
compound = "[2H]C([2H])([2H])N(CC(=O)[O-])C(=N)NC(=O)CCCCCCCCCC/C=C\\CCCCC.[Na+] [Compound 27]"
measured_result = "> 3 h"

[[record]]
compound = "[2H]C([2H])([2H])N(CC(=O)O)C(=N)NC(=O)CCCCCCCCCCC [Compound 30]"
measured_result = "2.7 h"

[[record]]
compound = "[2H]C([2H])([2H])N(CC(=O)OCC)/C(=N\\C(=O)OC(C)(C)C)NC(=O)CCCCCCCCCC [Compound 47]"
measured_result = "< 0.0833 h"

[[record]]
compound = "[2H]C([2H])([2H])N(CC(=O)[O-])C(=N)NC(=O)CCCCC/C=C\\CCCCCCCCCC.[Li+] [Compound 24]"
measured_result = "> 3 h"

[[record]]
compound = "[2H]C([2H])([2H])N1CC(=O)N=C1NC(=O)CCCCCCCCCC [Compound 49]"
measured_result = "0.783 h"

[[record]]
compound = "[2H]C([2H])([2H])N(CC(=O)[O-])C(=N)NC(=O)CCCCCCCC.[Na+] [Compound 36]"
measured_result = "> 3 h"

[[record]]
compound = "[2H]C([2H])([2H])N(CC(=O)[O-])C(=N)NC(=O)CCCC/C=C\\CCCCCCCCCCC.[Na+] [Compound 25]"
measured_result = "> 3 h"

[[record]]
compound = "Cl.[H]/N=C(/NC(=O)CCCCCCC/C=C\\CCCCCCCC)N(CC(=O)OCCCCCCC)C([2H])([2H])[2H] [Compound 2]"
measured_result = "< 0.0833 h"

[[record]]
compound = "[2H]C([2H])([2H])N(CC(=O)[O-])C(=N)NC(=O)CCCCCCCCCC.[Na+] [Compound 32]"
measured_result = "> 3 h"

